Origin of the recorded values: patent US20250082633A1

Test system: MYB mRNA
Experiment: RT-qPCR splicing assay, MYB canonical (CJ) and alternative (AJ) junction mRNA
Format: cell-based
Conditions: Homo sapiens; increase in alternative junction mRNA; A673 or K562 cells, 24 hours treatment; Table 2; read-out: MYB AJ AC50
Readout: AC50

Observe how each entry below is paired with its result.
Cc1cn2nc(-c3cc(F)c4nn([C@@H]5CCN(C)C[C@H]5F)cc4c3)cc(C)c2n1 | 1000 to 10000 nM
Cc1cn2cc(-c3cc(F)c4nn(C5CCNCC5)cc4c3)nc(C)c2n1 | 1000 to 10000 nM
Cc1cn2nc(-c3cc(F)c4nn(C5CCNC6(CC6)C5)cc4c3)cc(C)c2n1 (stereo not shown) | 100 to 1000 nM
Cc1ccc2cc(-c3cc(F)c4nn(C5CCNCC5)cc4c3)ccc2n1 | > 10000 nM

In: Name the reported AC50 value associated with the molecule Cc1c(O)c(-c2ccc3nn(C4CCNCC4)cc3n2)cc2cn(C)nc12
Out: 100 to 1000 nM

In: Name the reported AC50 value associated with the molecule Cc1nc2c(C)c(O)c(-c3cc(F)c4nn(C5CCNCC5)cc4c3)cc2o1
Out: 1000 to 10000 nM

In: Name the reported AC50 value associated with the molecule Cc1cn2nc(-c3cc4cn(C5CCNCC5)nc4c(OCc4ccccc4)n3)cc(C)c2n1
Out: > 10000 nM

In: Name the reported AC50 value associated with the molecule COc1cc2nn(C3CCNCC3)cc2cc1-c1cc(C)c2nc(C)cn2n1
Out: > 10000 nM

In: Name the reported AC50 value associated with the molecule COC1=C(C)C2N=C(C)OC2C=C1c1cc(F)c2nn(C3CCNCC3)cc2n1 (stereo not shown)
Out: > 10000 nM

In: Name the reported AC50 value associated with the molecule CCN1CCC(n2cc3cc(-c4cc(C)c5nc(C)cn5n4)cc(F)c3n2)CC1
Out: 100 to 1000 nM

In: Name the reported AC50 value associated with the molecule Cc1cc(-n2cc3cc(N4CCNCC4)cc(F)c3n2)cc2cn(C)nc12
Out: 1000 to 10000 nM

In: Name the reported AC50 value associated with the molecule Cc1cn2nc(-n3cc4cc(C5CCNCC5)cc(F)c4n3)cc(C)c2n1
Out: 1000 to 10000 nM

In: Name the reported AC50 value associated with the molecule Fc1cc(-c2ccc3cnccc3c2)cc2cn(C3CCNCC3)nc12
Out: 1000 to 10000 nM

====

Catalogue of compounds with associated AC50
Test system: MYB mRNA
Assay: RT-qPCR splicing assay, MYB canonical (CJ) and alternative (AJ) junction mRNA
Format: cell-based
Settings: Homo sapiens; increase in alternative junction mRNA; A673 or K562 cells, 24 hours treatment; Table 2; read-out: MYB AJ AC50
Where a name gives a salt, the structure may show the parent alone.

Observe how each entry below is paired with its result.
Cc1cn2cc(-c3cc(F)c4nn(C5CCNCC5)cc4c3)cc(Cl)c2n1 [Compound 127, hydrochloride salt] | 0.1 to 1 µM
CCN1CCC(n2cc3cc(-c4cc(F)c5nn(C)cc5c4)cc(F)c3n2)CC1 | 1 to 10 µM
Cc1cn2cc(-c3cc(F)c4nn(C5CCNCC5)cc4c3)cc(C)c2n1 | 0.1 to 1 µM
Cc1cn2nc(-c3ccc4nn(C5CCNCC5)cc4c3)cc(C)c2n1 | 0.1 to 1 µM
Cc1cn2nc(-c3cc(F)c4nn([C@H]5CCN(C)C6(CC6)C5)cc4c3)cc(C)c2n1 | < 0.1 µM

In: Name the reported AC50 value associated with the compound Cn1cc2cc(-c3ccc4cn(C5CCNCC5)nc4c3)cc(F)c2n1
Out: > 10 µM

In: Name the reported AC50 value associated with the compound Cc1cn2nc(-c3cc(F)c4nn(C5CCNC6(CC6)C5)cc4c3)cc2c(C)n1 (stereo in doubt) [Compound 205]
Out: 0.1 to 1 µM

In: Name the reported AC50 value associated with the compound Cn1cc2cc(-c3ccc4nn(C5CCNCC5)cc4c3)cc(F)c2n1
Out: 1 to 10 µM

In: Name the reported AC50 value associated with the compound Cc1nc2c(C)cc(-c3cc(F)c4nn(C5CCNCC5)cc4c3)cc2o1
Out: 0.1 to 1 µM

In: Name the reported AC50 value associated with the compound Cc1cn2nc(-c3cc(F)c4nn(C5CCN(C)C6(CC6)C5)cc4c3)cc(C)c2n1 (centres unmarked)
Out: 0.1 to 1 µM

In: Name the reported AC50 value associated with the compound Cc1c(O)c(-c2cc(F)c3nn(C4CCNCC4)cc3c2)cc2cn(C)nc12
Out: > 10 µM

In: Name the reported AC50 value associated with the compound Cc1cn2nc(-c3ccc4nn(C5CCNC6(CC6)C5)cc4n3)cc(C)c2n1 (centres unmarked)
Out: 1 to 10 µM
